// reported Normalized Binding Signal, 1500 nM per item
# EXPERIMENTAL_SYSTEM: T1, recombinant human Tie2 extracellular domain (human, UniProt Q02763 23-748)
# T1 construct: whole entry named; also called Recombinant human Tie2 ECD; hu Tie2
# T1 sequence (Q02763 23-748 limits assumed): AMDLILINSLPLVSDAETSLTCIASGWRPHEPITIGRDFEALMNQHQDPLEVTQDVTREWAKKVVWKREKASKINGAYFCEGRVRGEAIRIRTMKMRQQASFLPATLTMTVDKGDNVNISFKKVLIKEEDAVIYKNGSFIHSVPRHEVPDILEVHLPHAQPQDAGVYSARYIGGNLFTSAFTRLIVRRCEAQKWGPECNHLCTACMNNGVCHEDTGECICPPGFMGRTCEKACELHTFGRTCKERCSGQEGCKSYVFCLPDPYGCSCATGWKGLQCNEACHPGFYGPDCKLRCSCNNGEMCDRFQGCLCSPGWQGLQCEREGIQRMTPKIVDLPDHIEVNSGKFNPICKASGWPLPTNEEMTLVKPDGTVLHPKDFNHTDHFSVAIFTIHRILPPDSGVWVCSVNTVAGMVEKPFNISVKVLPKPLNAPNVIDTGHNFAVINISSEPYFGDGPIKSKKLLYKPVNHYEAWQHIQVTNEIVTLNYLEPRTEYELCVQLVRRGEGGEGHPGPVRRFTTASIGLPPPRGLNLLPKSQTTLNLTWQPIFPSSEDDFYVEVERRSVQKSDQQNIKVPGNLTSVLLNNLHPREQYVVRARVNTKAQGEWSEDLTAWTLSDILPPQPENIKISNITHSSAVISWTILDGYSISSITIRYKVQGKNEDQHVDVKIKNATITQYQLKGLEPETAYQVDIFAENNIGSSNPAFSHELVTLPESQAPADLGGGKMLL
# METHOD: SPR, IgG captured, 37C
# Method: A human antibody capture chip was prepared using a Series S CM5 chip (GE Life Sciences), a human antibody capture kit (GE Life Sciences) and an amine coupling kit (GE Life Sciences). […] Binding to 300 nM and 1500 nM recombinant Tie2 was analyzed at 37° C. using a Single Cycle Kinetics method with a contact time of 60 seconds, a dissociation time of 120 seconds and a flow rate of 50 μl/min. […]
Quick one: just the number, no unit, thanks!

Answered examples (3):
INSERT INTO assay_data (binder, measurement_kind, value_reported) VALUES
  ('Tie2.1.M100cL (antibody, IgG1, name in Kabat numbering, V domains shown, hIgG1) VH: EVQLVESGGGLVQPGGSLRLSCAASGFTFSNTDISWVRQAPGKGLEWVGRISPSDGNTYYADSVKGRFTISADTSKNTAYLQMNSLRAEDTAVYYCARRTRWASWALDYWGQGTLVTVSS VL: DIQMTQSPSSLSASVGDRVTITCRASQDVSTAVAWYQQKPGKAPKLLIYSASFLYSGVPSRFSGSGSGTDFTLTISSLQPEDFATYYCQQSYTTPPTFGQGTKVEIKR', 'Normalized Binding Signal, 1500 nM', 0.42),
  ('Tie2.1.M100cI (antibody, IgG1, name in Kabat numbering, V domains shown, hIgG1) VH: EVQLVESGGGLVQPGGSLRLSCAASGFTFSNTDISWVRQAPGKGLEWVGRISPSDGNTYYADSVKGRFTISADTSKNTAYLQMNSLRAEDTAVYYCARRTRWASWAIDYWGQGTLVTVSS VL: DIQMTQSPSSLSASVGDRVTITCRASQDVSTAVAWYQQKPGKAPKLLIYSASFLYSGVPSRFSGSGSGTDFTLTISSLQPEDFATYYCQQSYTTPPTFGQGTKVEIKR', 'Normalized Binding Signal, 1500 nM', 0.14),
  ('Tie2.1.M100cF (antibody, IgG1, V domains shown, hIgG1 in the SPR and binning assays) VH: EVQLVESGGGLVQPGGSLRLSCAASGFTFSNTDISWVRQAPGKGLEWVGRISPSDGNTYYADSVKGRFTISADTSKNTAYLQMNSLRAEDTAVYYCARRTRWASWAFDYWGQGTLVTVSS VL: DIQMTQSPSSLSASVGDRVTITCRASQDVSTAVAWYQQKPGKAPKLLIYSASFLYSGVPSRFSGSGSGTDFTLTISSLQPEDFATYYCQQSYTTPPTFGQGTKVEIK', 'Normalized Binding Signal, 1500 nM', 0.44);

Now for a further binder.
Problem: Returns the measured Normalized Binding Signal, 1500 nM for the input binder. Input: Tie2.1.M100cY (antibody, IgG1, name in Kabat numbering, V domains shown, hIgG1) VH: EVQLVESGGGLVQPGGSLRLSCAASGFTFSNTDISWVRQAPGKGLEWVGRISPSDGNTYYADSVKGRFTISADTSKNTAYLQMNSLRAEDTAVYYCARRTRWASWAYDYWGQGTLVTVSS VL: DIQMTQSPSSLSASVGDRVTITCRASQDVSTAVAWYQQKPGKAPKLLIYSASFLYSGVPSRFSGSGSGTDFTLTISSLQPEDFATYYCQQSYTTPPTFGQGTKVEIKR
Result: 0.46
